Assayed Target: CDK7/Cyclin H/MNAT1 (Homo sapiens, UniProt P50613)
Sequence (P50613 whole entry): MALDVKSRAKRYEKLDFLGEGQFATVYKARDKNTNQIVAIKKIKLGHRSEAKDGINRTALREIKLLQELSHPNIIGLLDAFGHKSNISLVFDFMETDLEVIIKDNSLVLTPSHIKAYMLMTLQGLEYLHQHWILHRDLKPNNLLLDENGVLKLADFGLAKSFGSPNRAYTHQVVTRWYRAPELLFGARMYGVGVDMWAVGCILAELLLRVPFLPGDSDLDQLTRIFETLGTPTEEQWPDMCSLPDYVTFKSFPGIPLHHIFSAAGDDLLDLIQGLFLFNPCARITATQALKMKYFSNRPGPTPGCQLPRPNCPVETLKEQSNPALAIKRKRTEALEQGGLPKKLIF
Sequence (P51946 whole entry partner): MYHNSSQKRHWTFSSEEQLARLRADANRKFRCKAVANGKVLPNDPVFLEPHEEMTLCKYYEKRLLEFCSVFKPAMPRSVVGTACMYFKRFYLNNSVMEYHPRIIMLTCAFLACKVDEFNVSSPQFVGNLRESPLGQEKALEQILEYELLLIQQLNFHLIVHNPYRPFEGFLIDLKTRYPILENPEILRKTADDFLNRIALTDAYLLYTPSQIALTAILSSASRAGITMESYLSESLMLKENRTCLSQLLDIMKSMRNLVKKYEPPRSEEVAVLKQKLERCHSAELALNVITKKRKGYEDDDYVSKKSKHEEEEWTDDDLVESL
Sequence (P51948 whole entry partner): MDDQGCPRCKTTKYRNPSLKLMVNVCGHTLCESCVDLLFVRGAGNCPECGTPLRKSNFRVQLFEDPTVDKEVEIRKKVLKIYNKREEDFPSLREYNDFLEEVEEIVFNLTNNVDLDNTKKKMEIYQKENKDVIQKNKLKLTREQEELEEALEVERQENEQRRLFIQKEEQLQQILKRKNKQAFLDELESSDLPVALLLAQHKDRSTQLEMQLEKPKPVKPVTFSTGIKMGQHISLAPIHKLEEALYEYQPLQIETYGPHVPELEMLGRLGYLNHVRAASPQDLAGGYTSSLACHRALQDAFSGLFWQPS
Protocol Details: Inhibition of CDK7/Cyclin H/MNAT1 kinase activity (ADP-Glo)
Format: biochemical
Experimental Context: mean of multiple measurement series; ATP 10 μM; read-out: CDK7/Cyclin H/MNAT1 IC50
Experimental Endpoint: IC50

input_smiles=Cn1cc(-n2ccc3c(-c4nc(N[C@H]5CCCNC5)ncc4C(F)(F)F)c[nH]c3c2=O)cn1 assay_result="< 5 nM"

// recorded IC50 for CC1(C)CC[C@H](Nc2ncc(C(F)(F)F)c(-c3c[nH]c4c3CCCN(C3CCC3)C4=O)n2)CN1 : 5.6 nM

What the record says about CN1CCCc2c(-c3nc(N[C@H]4CCCNC4)ncc3C(F)(F)F)c[nH]c2C1=O : IC50 is < 5 nM

Origin of values: patent US20260137698A1
